Molecular target: Hypoxia-inducible factor 1-alpha (Homo sapiens)
Experiment: Inhibition of hypoxia-induced HIF1alpha transcriptional activity in human Hep3B cells co-transfected with luciferase reporter plasmid containing six copies of HREs and pRL-CMV vector assessed as reduction in luciferase activity incubated for 24 hrs under hypoxic condition by HRE-dependent dual luciferase reporter gene assay
pIC50: −log10 of the molar value.

[
  {
    "RECORD_SMILES": "COc1ccc(-c2nnnn2CC(=O)O[C@@H]2C[C@@H]3[C@@]4(C)CCC(=O)C(C)(C)[C@@H]4CC[C@@]3(C)[C@]3(C)CC[C@H]([C@@]4(C)CCCC(C)(C)O4)[C@@H]23)cc1",
    "LIMIT_OPERATOR": "<",
    "pIC50": 4.00
  },
  {
    "RECORD_SMILES": "Cc1ccc(/C=C2\\C[C@]3(C)[C@H]4C[C@@H](O)[C@@H]5[C@@H]([C@@]6(C)CCCC(C)(C)O6)CC[C@@]5(C)[C@]4(C)CC[C@H]3C(C)(C)\\C2=N\\NC(N)=S)cc1",
    "LIMIT_OPERATOR": "=",
    "pIC50": 5.21
  },
  {
    "RECORD_SMILES": "CC1(C)CCC[C@](C)([C@H]2CC[C@]3(C)[C@@H]2[C@H](O)C[C@@H]2[C@@]4(C)CC(=C\\c5ccc(O)cc5)/C(=N\\NC(=N)N)C(C)(C)[C@@H]4CC[C@]23C)O1",
    "LIMIT_OPERATOR": "=",
    "pIC50": 5.21
  },
  {
    "RECORD_SMILES": "CC1(C)CCC[C@](C)([C@H]2CC[C@]3(C)[C@@H]2[C@H](O)C[C@@H]2[C@@]4(C)CC(=C\\c5ccc(F)cc5)/C(=N\\NC(N)=S)C(C)(C)[C@@H]4CC[C@]23C)O1",
    "LIMIT_OPERATOR": "=",
    "pIC50": 5.05
  },
  {
    "RECORD_SMILES": "CC1(C)CCC[C@](C)([C@H]2CC[C@]3(C)[C@@H]2[C@H](O)C[C@@H]2[C@@]4(C)CC(=C\\c5ccc(Cl)cc5)/C(=N\\NC(N)=O)C(C)(C)[C@@H]4CC[C@]23C)O1",
    "LIMIT_OPERATOR": "=",
    "pIC50": 5.26
  },
  {
    "RECORD_SMILES": "CC1(C)CCC[C@](C)([C@H]2CC[C@]3(C)[C@@H]2[C@H](O)C[C@@H]2[C@@]4(C)CC(=C\\c5ccc(F)cc5)/C(=N\\NC(N)=O)C(C)(C)[C@@H]4CC[C@]23C)O1",
    "LIMIT_OPERATOR": "=",
    "pIC50": 4.93
  }
]

* * *

Below, each entry is listed with its recorded IC50.
Biological target: Hypoxia-inducible factor 1-alpha (Homo sapiens, UniProt Q16665)
Sequence (Q16665 whole entry): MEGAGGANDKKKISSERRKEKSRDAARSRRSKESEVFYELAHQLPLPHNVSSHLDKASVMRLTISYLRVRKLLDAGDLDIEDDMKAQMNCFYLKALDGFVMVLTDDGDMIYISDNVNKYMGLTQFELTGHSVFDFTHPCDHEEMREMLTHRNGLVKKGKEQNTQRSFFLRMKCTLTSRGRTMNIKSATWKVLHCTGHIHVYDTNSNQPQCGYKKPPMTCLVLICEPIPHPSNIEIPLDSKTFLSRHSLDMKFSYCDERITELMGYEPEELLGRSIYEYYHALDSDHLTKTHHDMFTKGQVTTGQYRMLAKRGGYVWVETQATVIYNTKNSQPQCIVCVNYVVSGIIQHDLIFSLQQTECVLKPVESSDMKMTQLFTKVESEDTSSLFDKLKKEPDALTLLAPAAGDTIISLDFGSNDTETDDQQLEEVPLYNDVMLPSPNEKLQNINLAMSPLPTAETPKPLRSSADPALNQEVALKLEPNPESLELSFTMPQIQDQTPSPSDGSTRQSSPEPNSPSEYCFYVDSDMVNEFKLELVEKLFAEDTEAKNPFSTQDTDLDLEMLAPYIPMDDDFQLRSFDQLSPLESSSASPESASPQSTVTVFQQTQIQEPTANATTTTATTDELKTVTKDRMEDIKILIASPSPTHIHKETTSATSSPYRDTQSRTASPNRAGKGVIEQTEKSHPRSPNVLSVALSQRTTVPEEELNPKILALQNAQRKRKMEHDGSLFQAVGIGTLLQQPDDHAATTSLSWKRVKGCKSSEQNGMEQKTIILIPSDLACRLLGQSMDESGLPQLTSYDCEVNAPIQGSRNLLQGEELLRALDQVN
Assay: Inhibition of hypoxia-induced HIF1alpha transcriptional activity in human Hep3B cells co-transfected with luciferase reporter plasmid containing six copies of HREs and pRL-CMV vector assessed as reduction in luciferase activity incubated for 24 hrs under hypoxic condition by HRE-dependent dual luciferase reporter gene assay

[
  {
    "RECORD_SMILES": "COc1ccc(/C=C2\\C[C@]3(C)[C@H]4C[C@@H](O)[C@@H]5[C@@H]([C@@]6(C)CCCC(C)(C)O6)CC[C@@]5(C)[C@]4(C)CC[C@H]3C(C)(C)\\C2=N\\NC(=N)N)cc1",
    "UNIT_ANNOTATION": "µM",
    "IC50": 5.8
  },
  {
    "RECORD_SMILES": "CC1(C)CCC[C@](C)([C@H]2CC[C@]3(C)[C@@H]2[C@H](OC(=O)Cn2nnnc2-c2ccc4c(c2)OCO4)C[C@@H]2[C@@]4(C)CCC(=O)C(C)(C)[C@@H]4CC[C@]23C)O1",
    "UNIT_ANNOTATION": "µM",
    "IC50": 40.9
  },
  {
    "RECORD_SMILES": "CC1(C)CCC[C@](C)([C@H]2CC[C@]3(C)[C@@H]2[C@H](O)C[C@@H]2[C@@]4(C)CC/C(=N\\Nc5cccc(F)c5)C(C)(C)[C@@H]4CC[C@]23C)O1",
    "UNIT_ANNOTATION": "µM",
    "IC50": 67
  },
  {
    "RECORD_SMILES": "CC1(C)CCC[C@](C)([C@H]2CC[C@]3(C)[C@@H]2[C@H](OC(=O)CNc2nnn[nH]2)C[C@@H]2[C@@]4(C)CCC(=O)C(C)(C)[C@@H]4CC[C@]23C)O1",
    "UNIT_ANNOTATION": "µM",
    "IC50": 36.2
  },
  {
    "RECORD_SMILES": "CC1(C)CCC[C@](C)([C@H]2CC[C@]3(C)[C@@H]2[C@H](O)C[C@@H]2[C@@]4(C)CC/C(=N\\Nc5cccc([N+](=O)[O-])c5)C(C)(C)[C@@H]4CC[C@]23C)O1",
    "UNIT_ANNOTATION": "µM",
    "IC50": 61.2
  },
  {
    "RECORD_SMILES": "CC1(C)CCC[C@](C)([C@H]2CC[C@]3(C)[C@@H]2[C@H](O)C[C@@H]2[C@@]4(C)CC[C@H](O)C(C)(C)[C@@H]4CC[C@]23C)O1",
    "UNIT_ANNOTATION": "µM",
    "IC50": 9.1
  },
  {
    "RECORD_SMILES": "Cc1ccccc1N/N=C1\\CC[C@]2(C)[C@H]3C[C@@H](O)[C@@H]4[C@@H]([C@@]5(C)CCCC(C)(C)O5)CC[C@@]4(C)[C@]3(C)CC[C@H]2C1(C)C",
    "UNIT_ANNOTATION": "µM",
    "IC50": 24.9
  },
  {
    "RECORD_SMILES": "CC1(C)CCC[C@](C)([C@H]2CC[C@]3(C)[C@@H]2[C@H](O)C[C@@H]2[C@@]4(C)CC/C(=N\\Nc5cccc(Cl)c5)C(C)(C)[C@@H]4CC[C@]23C)O1",
    "UNIT_ANNOTATION": "µM",
    "IC50": 36.7
  },
  {
    "RECORD_SMILES": "CC1(C)CCC[C@](C)([C@H]2CC[C@]3(C)[C@@H]2[C@H](O)C[C@@H]2[C@@]4(C)CC(=C\\c5ccccc5F)/C(=N\\NC(N)=O)C(C)(C)[C@@H]4CC[C@]23C)O1",
    "UNIT_ANNOTATION": "µM",
    "IC50": 5.9
  },
  {
    "RECORD_SMILES": "Cc1ccc(/C=C2\\C[C@]3(C)[C@H]4C[C@@H](O)[C@@H]5[C@@H]([C@@]6(C)CCCC(C)(C)O6)CC[C@@]5(C)[C@]4(C)CC[C@H]3C(C)(C)\\C2=N\\NC(=N)N)cc1",
    "UNIT_ANNOTATION": "µM",
    "IC50": 37.7
  }
]

Value source: ChEMBL document CHEMBL4699611
